# TESTED_ON: ALK2R206H (mutant ALK2, N-terminally tagged with GST) (Homo sapiens, UniProt Q04771, R206H)
# Sequence (Q04771 21-509 R206H): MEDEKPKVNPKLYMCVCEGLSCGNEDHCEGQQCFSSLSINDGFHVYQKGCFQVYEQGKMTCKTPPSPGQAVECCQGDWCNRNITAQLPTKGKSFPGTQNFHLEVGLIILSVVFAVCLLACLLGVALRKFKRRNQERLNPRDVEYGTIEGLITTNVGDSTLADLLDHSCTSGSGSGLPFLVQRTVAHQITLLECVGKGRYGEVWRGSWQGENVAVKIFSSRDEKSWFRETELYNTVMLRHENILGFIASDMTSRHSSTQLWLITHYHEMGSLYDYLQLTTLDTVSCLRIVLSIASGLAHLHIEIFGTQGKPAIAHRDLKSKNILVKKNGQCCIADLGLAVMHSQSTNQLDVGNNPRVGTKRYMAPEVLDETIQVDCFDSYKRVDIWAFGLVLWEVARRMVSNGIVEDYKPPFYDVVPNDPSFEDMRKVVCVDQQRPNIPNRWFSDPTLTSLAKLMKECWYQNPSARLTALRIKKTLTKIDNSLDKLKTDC
# ASSAY_OVERVIEW: ALK binding assay (LANTHASCREEN TR-FRET competitive binding, displacement of Kinase Tracer 178)
# CONDITIONS_USED: read-out: Binding Assay (IC50 class)
ENDPOINT_LABEL: IC50

| STRUCTURE_STRING | RESULT |
| --- | --- |
| Cn1cc(-c2cc3c(N4CCN(C(=O)CC#N)CC4)ccnc3[nH]2)cn1 | 10 to 50 nM |

Fill blank: measured IC50 of the molecule C[C@H](F)COC(=O)N1CCN(c2ccnc3[nH]c(-c4cnn(C)c4)cc23)CC1 is ____.
≤ 10 nM

// returns reported IC50 for input Cn1cc(-c2[nH]c3nccc(N4CCN(C(=O)[C@H]5CC[C@H](C#N)CC5)CC4)c3c2Cl)cn1
≤ 10 nM

IC50 lookup needed for CC(C)(O)c1nc(-c2cc3c(N4CCN(C(=O)OC5COC5)CC4)ccnc3[nH]2)cs1 , thanks.
≤ 10 nM
